test: soluble fraction after stress (log2 fold change); higher = more stays soluble; pooled small domains, quantitative proteomics; conditions: stress: 75 degC;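 further: 20 min heating vs room temperature control held 20 min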
Tag: Condition met if measured soluble fraction (log2) is not below -0.05, Condition not met if it is.

# biosequence, class-name
measured = [
    ("HMESYTEEMLEKMSVSKLRTIARELQVDNMTREQIRFGKKTELIQNILEFTGREIENMQLYDK", "Condition met"),
    ("HMKKLPDDANDIIERVSSRLAQKFRFGYHTIDDMKQQAALFAWEGIYDSWDDSRPLENFLWIHVRNRLYN", "Condition not met"),
    ("HMVDGTPALTDLKKVSKPGRRHYTGSQEIPRVLNGLGISIVSTSKGIMTGAQARRQKVGGELLAFV", "Condition met"),
    ("HMTPNATWQDDAQNLLRDLIQHQPVLVQISAAKRLRDQAEQISRITGGETVTREHVEAAGHALGMGVT", "Condition met"),
    ("HMQLDDDQKEELILKLIDSLDTTKKGAPLTELAREAAKSNIGESELEEITTSLLDKGLVYEPTIGKMKR", "Condition met"),
    ("HMAGLYSLLLVELPMERLPEDLPAIKAAWLKTGDTEAFKVALQAMSSRGWTIAVPGKHRDTQMTQL", "Condition met"),
    ("HMSSYETVTLNGQRYFKYKVKSGEGLYAISRMFSTPIAEIIRHNPSSNAGLKNGQELLIPVN", "Condition not met"),
]

Query string: State whether the measured soluble fraction (log2) reaches -0.05, counting equality as reaching it, for `HMARLAGVDLPREKRIEIGLTYIYGIGLARSQEILKKAGINPDIRVKDLTDEQEQAIRNAMDGYIVEGDL`
Result string: Condition not met

---

experiment: soluble fraction after stress (log2 fold change); higher = more stays soluble; pooled small domains, quantitative proteomics; details: stress: 75 degC
Please note: y applies when soluble fraction (log2) is -0.8 or greater, and n applies otherwise.

Previously resolved entries follow.
# biosequence, class-name
records = [
    ("HMTRNGTVTFFNHDKGYGFIKDVLTQESVFVHINSLSEPINEQNKVSFEIEMGPRGSNAINVKLI", "n"),
    ("HMLPKLAEEYAIMEIRGKGENLTAKLINKGGDSFMVRNGTVLQTGHRIDEITQTYVRAEINGMKDYLYFA", "y"),
]

Query string: Hello, I need to know if `HMVSSYTMAIQINGKLRATHDFSVDTSQEDIKKIIINLPAIQKYINGVEIKKFIIVPQKIVNIV` has measured soluble fraction (log2) not below -0.8. Thanks!
Result string: n

---

Form field: soluble fraction (log2) (one value per entry).
assay: soluble fraction after stress (log2 fold change); higher = more stays soluble; pooled small domains, quantitative proteomics; conditions: stress: 75 degC
Just the number.

# biosequence, soluble fraction (log2)
measured = [
    ("HMKEADVRKNEILDAAGILFSEKGYDNTSVTDIMNAVGFAKGTLYHHFKSKEDIMDALIKRQTD", -0.125),
    ("HMNLLQAHLLRLESAALLAEVREVDRQLSRWLHPLTPQSDVAIIDERNWEAAVARLTELGVHIEEGRW", -3.05),
    ("HMATSNGEFVIPDGGLQFEELERSLLMQALKKSGGSQTGAARLLGLSRDTLRYRLEKFGIDAAAVRE", -0.39),
    ("HMLRMTRNRQKLVEVLMESGRPLSADEIREAAGFASTDLVTVYRNLEAFQSAGLLQRIPLENGSQLFELT", -0.46),
    ("HMLAQISDEGAIGAVVARVLDAHPNEVARYHAGEEKVAKFLMGAAMRELRGKGDPAVVQRLLSEGLDARRV", -0.00832),
]

soluble fraction (log2) recorded for this sequence, `HMNEMSDTITRLLDAAETGIRLRGYHAVSFRDLAEELGIKSSSVHYYFRQKEDLGLAVVERY` , is 0.000622

The sequence listed as `HMKRAVGLDEYRDSIVLKKPEGYTEESYAAYKNAYDALMALDSKETTAEMFANAKSAFEAAQAGLVQKP` shows soluble fraction (log2) equal to 0.119

Documented soluble fraction (log2) of `HMFPDLSPEQQRIVDVLTKSNDLQLNQLSVKTGIPIGDITSILFQMEMMGVVKPMAGGNYHLL` : -1.68

---

assay: soluble fraction after stress (log2 fold change); higher = more stays soluble; pooled small domains, quantitative proteomics; details: stress: 75 degC
Threshold rule: soluble fraction (log2) greater than or equal to -0.1 is Fulfilled; below that, Not fulfilled.

Would you please look over these solved cases?
# biosequence, class-name
measured = [
    ("HMSDRLRPGDMVVVVGKKKRYPVFSAFDIDFVEAGDVGKVLTVKREEVVVGFPKKGEGTFTPSELNIAH", "Not fulfilled"),
    ("HMRHYVLKENNGVIAIYKVNQENEAVFKENTQIQVQYLPEVDLINLKKGIYAIGEEKLNSILEDF", "Not fulfilled"),
    ("HMKAFTKKELQDLVLNIFRASPTTNYNYKQLYKLIRGKDPEIKTLIIAVLLGLEKNGSILQMRPGKYKFS", "Fulfilled"),
    ("HMTIRIPEEEYLTRAKRAAQMTAERGLDALFLFGSEGDFQNVRYFTSVTPIWERLGVVITASGKAAMLTGP", "Not fulfilled"),
    ("HMRGSRIFSGDVSPLTLPANSPFFSGYTEFKPGDVYVERSATNIAMWEWKSQPGGYTWVKTADIA", "Not fulfilled"),
    ("HMSEKELTDLIERIKERRLKLEMSYQDLSDATGISKSTLQRYETGYIKKVPINQIEILAKALHTTPSYLMG", "Not fulfilled"),
    ("HMLEYIEPRTAVQIHGIKAKPELNGKRGMVMGYAPERMRYRVRIDVGEGTGGKESEEVYLKPENVIAVK", "Fulfilled"),
]

Continue with the sequence presented below.
Query string: Entry `HMGELYGTDQYKDGDAQDTNIGKLLEVNIDGKWQVATTGTSRFEFAGVMDDNGHKLIMISVLPEAKTV` : is its soluble fraction (log2) no less than -0.1?
Result string: Fulfilled

---

Attribute: soluble fraction (log2)
assay: soluble fraction after stress (log2 fold change); higher = more stays soluble; pooled small domains, quantitative proteomics; conditions: stress: 75 degC
Lab note: jot down the number only; don't add units.

# biosequence, soluble fraction (log2)
data = [
    ("HMEDNKLKNEIKNELVSHLEKPYSVEDLADALKYHGSAAFKLIVQELAILERERAVVVTHDGNFKINSS", -1.11),
    ("HMKSLAQELVDALGDRIRDGRLKVGDKLPSEAAIEAQYGVSRTVVREAISRLQAAGLVVTRHGIGTFIVGI", -2.45),
    ("HMGQDLSYYIKIVQNQQPVDPLTGEPKVLDYGEVIRQAQILQMLDTGDLDRDKAIGQLSMKDAL", 0.292),
]

The record that follows has no soluble fraction (log2) shown yet.
Value of measured soluble fraction (log2) for the entry `HMEFGEVLAQLRQKRHISQAELGRAIFVSGGTISNYEKGVHFPDVEKLLLLADYFNVTTDYLLGRT` : -2.65

---

experiment: soluble fraction after stress (log2 fold change); higher = more stays soluble; pooled small domains, quantitative proteomics; conditions: stress: 75 degC
quantity-measured: soluble fraction (log2)
// response body must contain only the number

Example entries begin here.
# biosequence, soluble fraction (log2)
data = [
    ("HMEDDIRSSIRTLDQFISKNQITLSKDVKNYILQLLSNDRMVTINELEKIKIYYDSNENIDLDTVKILLN", -0.796),
    ("HMADFYEVLGVERNASSDQIKRAYRKLARELHPDVNLDPVAQNRFKEVTEAYEVLSDPNKRSNFDRG", 0.0366),
    ("HMINKQPKDYEYFLEKWHFTQTEKHQLHNLILKLNIRYPNKDFLKITENLDNGKLVLKKLEERLSKT", -1.33),
    ("HMNNLVTRREVEILGWIKEGKTTSDIAGILSLSPFTVKNHVQNILKKLGARSRSHAVAQAINLGLLH", -1.4),
]

In plain terms, `HMSGITDIITDGKATSRPVVVTDGGHIRVLSPYTSFAIYTLGGMSLPTESRLEPGIYIVVVDSNAVKVAV` has a documented soluble fraction (log2) of -1.59

The sequence `HMQQFGANVRLIRKARQMSIKQLSELSGVSQTMISEVERGLKIPTIDVAGKIAAALGIDLTNLMG` showed soluble fraction (log2) equal to -2.16

So, `HMHKYQVGETVYYTSPTFGRAAATGSYIVVKLLPSEGDDYQYRIKSSGEAFERVAKESQLDR` ? Its soluble fraction (log2) was -0.57

Please fill in: soluble fraction (log2) reported for `HMAPLATIHVSSLSQKPFYLYGTFEDRRGNHLFFLEQIMGENKSIPVAMPSSAINPKIHASLTPPKG` = -0.494

Measured soluble fraction (log2), `HMAMTQNVDLAGRIVFNEKKEEVFNFGKHKGRSVAEVFEKEPSYYDWMLKGDFPAETKQVLTALRLRGLS` : -0.186

For `HMDYHTIQTGDKGDEVLRLQQALAEYGYYEGDLDGRFGQQTRRAVERFQYSHGLTADGIAGRNTLSVLYD` the sequence record lists soluble fraction (log2) as -0.181

Recorded soluble fraction (log2) (sequence `HMINRPVYVPLYTNLDVKDAAEIAEKLEENNIAYKLEDQGETILVNPEQKYKVRLMLAQEGLPKG` ): 0.0786

Measured soluble fraction (log2), `HMYNPAYDAEIKVILELARHGYWEEARERADELLKAAPDDTGVKRIQTWVRQQEQRMREQAIEDSIRA` : -0.288

// soluble fraction (log2) lookup, sequence = `HMTDPVLYEERDDIAIITINRPEKKNTLTDAVIQGIADGIDAATKSADVVAVVLRGAGDTLTAGYDLTA` , result: 0.213

Summary for this sequence, `HMHESLAEVAARKLRALIVTGELAPGERVTEAGLTDLLEISRTPAREAIRILSSEGLLVVFPNRGAEVV` : soluble fraction (log2) is -0.94

What the record says about `HMKLVAAGYHQNRLLVLLGIQAEELQAKRLLASFDRFRGREATPKPPIHDSARRWLRDTYHHVMNQVPVEL` : soluble fraction (log2) is -1.59

Measured soluble fraction (log2) of `HMSGFFVYPNPAKSNIIHFPNKKSFYIYDTSGRLLIEGKGKDFIDVSTLDRGVYLLKTFENDIVKIII` : -1.1

Memo: `HMLKNKSTGNINETKAILELALNHSHFKVFDNRDMTVTFKNLATQFTTMQRILVQMFFPLPAGVELIIE` , reported soluble fraction (log2): 0.428

// `HMSVPVDEVLAALTQKLTDLRTQAMAAKDFSAVDALKAALTEAGVEVRMSKTGVELIAGPRVDAKKLGTL` : soluble fraction (log2) value = 0.395

The reported value for `HMASAAHYEGVKTEGESDNDVITRVLTATGVTAEKDDIFVVKSLIADGKYSYTAYVYDGSVWAAMD` in terms of soluble fraction (log2) is -0.236

soluble fraction (log2) measured on `HMKTMSLSSIEKAIYKTKYENEPTSQRLSRIESSVFGTNFSQDSESERIARISSAINAQKSAK` = 0.0313
